Field: MIC. Provide a value for each of the compounds that follow.
Enter your answer as a number in µg/mL; do not include the unit.

Query: Request: MIC, test system C. tropicalis 2808E, entry COC1CC(OCC23CC4C(C)CCC4C4(C=O)CC2C=C(C(C)C)C43C(=O)O)OC(C)C1OC (stereo not shown) [Example 5]
Result: 0.004

Query: Request: MIC, test system C. tropicalis 2808E, entry COC1CCC(OCC23CC4C(C)CCC4C4(C=O)CC2C=C(C(C)C)C43C(=O)O)OC1C (stereo not shown) [Example 39]
Result: 0.25

Query: Request: MIC, test system C. tropicalis 2808E, entry COCOC1CC(OCC23CC4C(C)CCC4C4(C=O)CC2C=C(C(C)C)C43C(=O)O)OC(C)C1OC (stereo not shown) [Example 8]
Result: 2

Query: Request: MIC, test system C. tropicalis 2808E, entry COC1C(N=[N+]=[N-])CC(OCC23CC4C(C)CCC4C4(C=O)CC2C=C(C(C)C)C43C(=O)O)OC1C (stereo not shown) [Example 15]
Result: 0.004

* * *

Value type: MIC (µg/mL)
Enter your answer as a number in µg/mL; do not include the unit.

Query: Request: MIC, test system C. albicans 2005E, entry CCCCCCOC1C(O)C(OCC23CC4C(C)CCC4C4(C=O)CC2C=C(C(C)C)C43C(=O)O)OC(C)C1OC (stereo not shown) [Example 3]
Result: 0.25

Query: Request: MIC, test system C. albicans 2005E, entry COCOC1CC(OCC23CC4C(C)CCC4C4(C=O)CC2C=C(C(C)C)C43C(=O)O)OC(C)C1OC (stereo not shown) [Example 8]
Result: 0.03

Query: Request: MIC, test system C. albicans 2005E, entry COC1C(C)OC(OCC23CC4C(C)CCC4C4(C=O)CC2C=C(C(C)C)C43C(=O)O)C(O)C1N=[N+]=[N-] (stereo not shown) [Example 10]
Result: 0.12

Query: Request: MIC, test system C. albicans 2005E, entry CCCOC1C(C)OC(OCC23CC4C(C)CCC4C4(C=O)CC2C=C(C(C)C)C43C(=O)O)CC1OC (stereo not shown) [Example 9]
Result: 2

Query: Request: MIC, test system C. albicans 2005E, entry COC1CCC(OCC23CC4C(C)CCC4C4(C=O)CC2C=C(C(C)C)C43C(=O)O)OC1C (stereo not shown) [Example 39]
Result: 0.004

* * *

Test system: C. glabrata 2375E
Field: MIC. Provide a value for each of the compounds that follow.
Enter your answer as a number in µg/mL; do not include the unit.

Query: Give its MIC value. Item: CC(=O)OC1C(C)OC(OCC23CC4C(C)CCC4C4(C=O)CC2C=C(C(C)C)C43C(=O)O)CC1SC(C)=O (centres unmarked) [Example 42]
Result: 31

Query: Give its MIC value. Item: COC1C(C)OC(OCC23CC4C(C)CCC4C4(C=O)CC2C=C(C(C)C)C43C(=O)O)C(O)C1SC (centres unmarked) [Example 11]
Result: 31

Query: Give its MIC value. Item: COC1C(C)OC(OCC23CC4C(C)CCC4C4(C=O)CC2C=C(C(C)C)C43C(=O)O)C(O)C1N=[N+]=[N-] (centres unmarked) [Example 10]
Result: 62

Query: Give its MIC value. Item: CCCCCCCC(=O)OC1C(O)C(OCC23CC4C(C)CCC4C4(C=O)CC2C=C(C(C)C)C43C(=O)O)OC(C)C1OC (centres unmarked) [Example 24]
Result: 500

Query: Give its MIC value. Item: COC1CCC(OCC23CC4C(C)CCC4C4(C=O)CC2C=C(C(C)C)C43C(=O)O)OC1C (centres unmarked) [Example 39]
Result: 8

Query: Give its MIC value. Item: COCOC1CC(OCC23CC4C(C)CCC4C4(C=O)CC2C=C(C(C)C)C43C(=O)O)OC(C)C1OC (centres unmarked) [Example 8]
Result: 16

Query: Give its MIC value. Item: COC1C(N=[N+]=[N-])CC(OCC23CC4C(C)CCC4C4(C=O)CC2C=C(C(C)C)C43C(=O)O)OC1C (centres unmarked) [Example 15]
Result: 1

Query: Give its MIC value. Item: CCCOC1CC(OCC23CC4C(C)CCC4C4(C=O)CC2C=C(C(C)C)C43C(=O)O)OC(C)C1OC (centres unmarked) [Example 7]
Result: 8

Query: Give its MIC value. Item: COC1CC(OCC23CC4C(C)CCC4C4(C=O)CC2C=C(C(C)C)C43C(=O)O)OC(C)C1OC (centres unmarked) [Example 5]
Result: 1
